- Tested on: resting heart rate in the pithed rat
- TEST NAME: intrinsic sympathomimetic activity: increase in resting heart rate in the pithed rat
- Assay type: in vivo
- RECORDED CONDITIONS: maximum effect of cumulative doses of drug up to 3 mg/kg
Maximum Change in Resting Heart Rate in the Pithed Rat values by entry
OUTCOME MEASURE: Maximum Change in Resting Heart Rate in the Pithed Rat

{"COMPOUND": "CC(C)NCC(O)COc1cccc2ccccc12 (centres unmarked)", "MEASURED RESULT": 0}
{"COMPOUND": "CC(C)NCC(O)COc1ccc(CC(N)=O)cc1 (centres unmarked) [Atenolol, reference compound]", "MEASURED RESULT": 0}
